Molecular target: T1, human GLP-1 receptor (human, UniProt P43220 24-463)
T1 construct: whole, on cells; Used as purified membranes of the transfected hamster cells, not whole cells; also called hGLP-1
Assay: SPA, 2.0% vs 0.005% HSA
*1 amine or outer side, *2 acyl side, *3 side chain or, on linkers, in order; H or OH if unused. Where no end group is shown, it is not given here. Side-chain parts run from the residue outwards. The star is where a group is joined. γGlu = O=C(O)[C@H](CCC(=O)[*:2])N[*:1]; C12 diacid = O=C(O)CCCCCCCCCCC(=O)*; 13‑carboxytridecanoyl = C14 diacid; AEEA = NCCOCCOCC(=O)O
Please respond with reported ratio IC50 high HSA/IC50 low HSA for every item in the list.

Exercise: Specify measured ratio IC50 high HSA/IC50 low HSA for HSEGTFTSDVSK([AEEA-AEEA-γGlu-C12 diacid])YLEEQAVREFIAK([AEEA-AEEA-γGlu-C12 diacid])LVG [GLP-1 derivative of Example 25: [Ser8,Lys18,Glu22,Val25,Arg26,Lys31,Gly34]-GLP-1-(7-34)-peptide] .
Solution: > 1

Exercise: Identify the reported ratio IC50 high HSA/IC50 low HSA for the following entry. HAEGTFTSDVSK([AEEA-AEEA-γGlu-γGlu-γGlu-13‑carboxytridecanoyl])YLEEQAVREFIAK([AEEA-AEEA-γGlu-γGlu-γGlu-13‑carboxytridecanoyl])LVRGRG [GLP-1 derivative of Example 101: [Lys18,Glu22,Val25,Arg26,Lys31,Arg34]-GLP-1-(7-37)-peptide]
Solution: > 1
